Catalogue of MIC readings, one per entry.
Test system: Trichophyton mentagrophytes
testSummary: Antifungal activity against Trichophyton mentagrophytes at 10 to 50 ug/ml after 3 to 4 days
Type: functional
measurementType: MIC (µg/mL)

• Cc1nc(-c2cc(-c3ccc(Cl)cc3)n(-c3ccc(F)cc3)n2)sc1C(=O)NNC(=O)NC(=O)c1ccc(C(F)(F)F)cc1 = 12.5
• N#Cc1ccc(-c2csc(-c3cc(-c4ccc(Cl)cc4)n(-c4ccc(F)cc4)n3)n2)cc1 = 12.5
• CS(=O)(=O)OC1CCN(C(=O)c2cc(-c3ccc(Cl)cc3)n(-c3ccc(F)cc3)n2)CC1 = 12.5
• N#Cc1ccc(NC(=O)N2CCN(C(=O)c3cc(-c4ccc(Cl)cc4)n(-c4ccc(F)cc4)n3)CC2)cc1 = 12.5
• C=CCNC(=O)NNC(=O)c1sc(-c2cc(-c3ccc(Cl)cc3)n(-c3ccc(F)cc3)n2)nc1C = 12.5
• CCCCCC(=O)N1CCN(C(=O)c2cc(-c3ccc(Cl)cc3)n(-c3ccc(F)cc3)n2)CC1 = 12.5
• O=C(c1cc(-c2ccc(Cl)cc2)n(-c2ccc(F)cc2)n1)N1CCC(O)CC1 = 12.5
• Cc1nc(-c2cc(-c3ccc(Cl)cc3)n(-c3ccc(F)cc3)n2)sc1C(=O)NN = 12.5
• O=C1CCN(C(=O)c2cc(-c3ccc(Cl)cc3)n(-c3ccc(F)cc3)n2)CC1 = 50
• O=C(c1cc(-c2ccc(Cl)cc2)n(-c2ccc(F)cc2)n1)N1CCN(C(=O)C2CC2)CC1 = 12.5
• C=CCNC(=O)N1CCN(C(=O)c2cc(-c3ccc(Cl)cc3)n(-c3ccc(F)cc3)n2)CC1 = 12.5
• CCOC(=O)c1sc(-c2cc(-c3ccc(Cl)cc3)n(-c3ccc(F)cc3)n2)nc1C = 12.5
• O=C(c1cc(-c2ccc(Cl)cc2)n(-c2ccc(F)cc2)n1)N1CCNCC1 = 50
• CCNC(=O)N1CCN(C(=O)c2cc(-c3ccc(Cl)cc3)n(-c3ccc(F)cc3)n2)CC1 = 12.5
• Cc1cc(C2CCCCC2)n(O)c(=O)c1.NCCO = 3.12

---

Test system: Trichophyton mentagrophytes
testSummary: Antifungal activity against Trichophyton mentagrophytes after 3 to 4 days by serial plate dilution method
Assay type: functional
As shown below, each of these compounds has a reported inhibition zone (IZ) value.
measurementType: inhibition zone (IZ) (mm)

* Fc1ccc(-n2nc(-c3nc(-c4ccc(Cl)cc4)cs3)cc2-c2ccc(Cl)cc2)cc1 | 19
* CS(=O)(=O)OC1CCN(C(=O)c2cc(-c3ccc(Cl)cc3)n(-c3ccc(F)cc3)n2)CC1 | 28
* CCOC(=O)c1sc(-c2cc(-c3ccc(Cl)cc3)n(-c3ccc(F)cc3)n2)nc1C | 20
* Cc1nc(-c2cc(-c3ccc(Cl)cc3)n(-c3ccc(F)cc3)n2)sc1C(=O)NNC(=O)NC(=O)c1ccc(C(F)(F)F)cc1 | 17
* Cc1nc(-c2cc(-c3ccc(Cl)cc3)n(-c3ccc(F)cc3)n2)sc1C(=O)NN | 19
* O=C(c1cc(-c2ccc(Cl)cc2)n(-c2ccc(F)cc2)n1)N1CCNCC1 | 19
* N#Cc1ccc(-c2csc(-c3cc(-c4ccc(Cl)cc4)n(-c4ccc(F)cc4)n3)n2)cc1 | 22
* C=CCNC(=O)NNC(=O)c1sc(-c2cc(-c3ccc(Cl)cc3)n(-c3ccc(F)cc3)n2)nc1C | 19
* Cc1cc(C2CCCCC2)n(O)c(=O)c1.NCCO | 27
* O=C(c1cc(-c2ccc(Cl)cc2)n(-c2ccc(F)cc2)n1)N1CCN(C(=O)C2CC2)CC1 | 20
* N#Cc1ccc(NC(=O)N2CCN(C(=O)c3cc(-c4ccc(Cl)cc4)n(-c4ccc(F)cc4)n3)CC2)cc1 | 21
* C=CCNC(=O)N1CCN(C(=O)c2cc(-c3ccc(Cl)cc3)n(-c3ccc(F)cc3)n2)CC1 | 22

---

Test system: Klebsiella pneumoniae
testSummary: Antibacterial activity against Klebsiella pneumoniae after 24 hrs by disk diffusion method
Format: functional
Consider the following molecules and their measured inhibition zone (IZ) readings.
measurementType: inhibition zone (IZ) (mm)

- CS(=O)(=O)OC1CCN(C(=O)c2cc(-c3ccc(Cl)cc3)n(-c3ccc(F)cc3)n2)CC1: 23
- C=CCNC(=O)NNC(=O)c1sc(-c2cc(-c3ccc(Cl)cc3)n(-c3ccc(F)cc3)n2)nc1C: 21
- CCCCCC(=O)N1CCN(C(=O)c2cc(-c3ccc(Cl)cc3)n(-c3ccc(F)cc3)n2)CC1: 21
- C=CCNC(=O)N1CCN(C(=O)c2cc(-c3ccc(Cl)cc3)n(-c3ccc(F)cc3)n2)CC1: 19
- O=C(c1cc(-c2ccc(Cl)cc2)n(-c2ccc(F)cc2)n1)N1CCC(O)CC1: 21
- Fc1ccc(-n2nc(-c3nc(-c4ccc(Cl)cc4)cs3)cc2-c2ccc(Cl)cc2)cc1: 17
- CCOC(=O)c1sc(-c2cc(-c3ccc(Cl)cc3)n(-c3ccc(F)cc3)n2)nc1C: 19

---

List of inhibition zone (IZ) values.
Test system: Klebsiella pneumoniae
testSummary: Antibacterial activity against Klebsiella pneumoniae after 24 hrs by disk diffusion method
Assay type: functional
measurementType: inhibition zone (IZ)

- Cc1nc(NC(=O)c2cc(-c3ccc(Cl)cc3)n(-c3ccc(F)cc3)n2)sc1C(=O)O: <10 mm
- O=C(Nc1ccc(Cl)nc1)c1cc(-c2ccc(Cl)cc2)n(-c2ccc(F)cc2)n1: <10 mm
- Cc1nc(-c2cc(-c3ccc(Cl)cc3)n(-c3ccc(F)cc3)n2)sc1-c1n[nH]c(=O)o1: <10 mm

---

inhibition zone (IZ) listing for selected molecules.
Tested on: Pseudomonas aeruginosa
testSummary: Antibacterial activity against Pseudomonas aeruginosa ATTC 27853 after 24 hrs by disk diffusion method
Format: functional
measurementType: inhibition zone (IZ) (mm)

* N#Cc1ccc(-c2csc(-c3cc(-c4ccc(Cl)cc4)n(-c4ccc(F)cc4)n3)n2)cc1 | 19
* O=C(c1cc(-c2ccc(Cl)cc2)n(-c2ccc(F)cc2)n1)N1CCC(O)CC1 | 29
* O=C(O)c1cn(C2CC2)c2cc(N3CCNCC3)c(F)cc2c1=O [CIPROFLOXACIN] | 28
* O=C(c1cc(-c2ccc(Cl)cc2)n(-c2ccc(F)cc2)n1)N1CCNCC1 | 19
* CCOC(=O)c1sc(-c2cc(-c3ccc(Cl)cc3)n(-c3ccc(F)cc3)n2)nc1C | 19
* O=C1CCN(C(=O)c2cc(-c3ccc(Cl)cc3)n(-c3ccc(F)cc3)n2)CC1 | 18
* O=C(c1cc(-c2ccc(Cl)cc2)n(-c2ccc(F)cc2)n1)N1CCN(C(=O)C2CC2)CC1 | 17
* C=CCNC(=O)N1CCN(C(=O)c2cc(-c3ccc(Cl)cc3)n(-c3ccc(F)cc3)n2)CC1 | 19
